System: MIA PaCa-2 cells
Measurement Description: Growth inhibition activity on KRAS-G12C mutant cell line (MIA PaCa-2), CellTiter-Glo 3D
Assay type: cell-based, human
Condition Parameters: Homo sapiens, MIA PaCa-2, 72 h, MIA PaCa-2, 3-day culture with compound
Endpoint Label: IC50 (nM)
Answers are plain numbers, in nM.

Example results:
[
  {
    "Compound": "CCc1nc2cc(-c3cccn4c(C(=O)c5cc(F)c(NC(=O)/C=C/CN[C@H]6CC[C@H](OC)CC6)c(F)c5)ccc34)c(C(F)(F)F)cc2n1C [Example 3]",
    "Target": "MIA PaCa-2 cells",
    "IC50, nM": 52
  },
  {
    "Compound": "CO[C@H]1CC[C@H](NC/C=C/C(=O)Nc2c(F)cc(C(=O)c3ccc4c(-c5c(C#N)cc6c(nc(C)n6C)c5Cl)cccn34)cc2F)CC1 [Example 37]",
    "Target": "MIA PaCa-2 cells",
    "IC50, nM": 240
  },
  {
    "Compound": "CO[C@H]1CC[C@H](NC/C=C/C(=O)Nc2c(F)cc(C(=O)c3ccc4c(-c5cc6nc(C)n(C)c6cc5C(F)(F)F)nccn34)cc2F)CC1 [Example 115]",
    "Target": "MIA PaCa-2 cells",
    "IC50, nM": 248
  },
  {
    "Compound": "Cc1nc2cc(-c3cccn4c(C(=O)c5cc(F)c(NC(=O)/C=C/CNC6CCCCC6CO)c(F)c5)ccc34)c(C(F)(F)F)cc2n1C (centres unmarked) [Example 65]",
    "Target": "MIA PaCa-2 cells",
    "IC50, nM": 190
  },
  {
    "Compound": "CO[C@H]1CC[C@H](NC/C=C/C(=O)Nc2c(F)cc(C(=O)c3ccc4c(-c5c(C(F)(F)F)cc6c(nc(CO)n6C)c5Cl)cccn34)cc2F)CC1 [Example 67]",
    "Target": "MIA PaCa-2 cells",
    "IC50, nM": 51
  },
  {
    "Compound": "C/C=C/c1cc(C(=O)c2cc(F)c(NC(=O)/C=C/CN[C@H]3CC[C@H](OC)CC3)c(F)c2)n2cccc(-c3c(C)cc4c(nc(C)n4C)c3Cl)c12 [Example 96]",
    "Target": "MIA PaCa-2 cells",
    "IC50, nM": 130
  },
  {
    "Compound": "Cc1nc2cc(-c3cccn4c(C(=O)c5cc(F)c(NC(=O)/C=C/CN[C@H]6CC[C@@H](F)CC6)c(F)c5)ccc34)c(C(F)(F)F)cc2n1C [Example 81]",
    "Target": "MIA PaCa-2 cells",
    "IC50, nM": 71
  },
  {
    "Compound": "Cc1nc2cc(-c3cccn4c(C(=O)c5cc(F)c(NC(=O)/C=C/CNC67CCC(F)(CC6)C7)c(F)c5)ccc34)c(C(F)(F)F)cc2n1C [Example 84]",
    "Target": "MIA PaCa-2 cells",
    "IC50, nM": 120
  }
]

Please supply IC50 for each of the following items, keeping them in order.
1. CCc1cc2c(nc(C)n2C)c(Cl)c1-c1cccn2c(C(=O)c3cc(F)c(NC(=O)/C=C/CNC(C)(C)C)c(F)c3)ccc12 [Example 16]
2. Cc1nc2cc(-c3cccn4c(C(=O)c5cc(F)c(NC(=O)/C=C/CN[C@@H]6CCC[C@@H](F)C6)c(F)c5)ccc34)c(C(F)(F)F)cc2n1C (racemic) [Example 90]
3. Cc1nc2cc(-c3cccn4c(C(=O)c5cc(F)c(NC(=O)/C=C/CNC6CCOCC6)c(F)c5)ccc34)c(C(F)(F)F)cc2n1C [Example 24]
4. CO[C@H]1CC[C@H](NC/C=C/C(=O)Nc2c(F)cc(C(=O)c3ccc4c(-c5cc6ncn(C)c6cc5O)cccn34)cc2F)CC1 [Example 23]
5. CCc1cc(C(=O)c2cc(F)c(NC(=O)/C=C/CN[C@H]3CC[C@H](OC)CC3)c(F)c2)n2cccc(-c3c(C)cc4c(nc(C)n4C)c3Cl)c12 [Example 89]
6. COCc1nc2c(Cl)c(-c3cccn4c(C(=O)c5cc(F)c(NC(=O)/C=C/CNC(C)(C)C)c(F)c5)ccc34)c(C)cc2n1C [Example 86]

48
200
54
520
100
81

Reference source: patent US20240246968A1
